assay.notes: Drug concentration in mouse plasma at 100 mg/kg, po measured after 1.25 hrs
Format: ADME, organism-based
attribute.measured: concentration at 1.25 h (µM)

>>> measured("CN[C@H](CNc1cc(F)c(S(=O)(=O)Nc2ncc(F)s2)cc1Cl)CC(C)(C)C.Cl")
4.9

----------
assay.notes: Drug concentration in mouse brain at 100 mg/kg, po measured after 1.25 hrs
Assay type: ADME, organism-based
experimental.parameters: read-out: Ct
attribute.measured: concentration at 1.25 h (nM)

>>> measured("CN[C@H](CNc1cc(F)c(S(=O)(=O)Nc2ncc(F)s2)cc1Cl)CC(C)(C)C.Cl")
100

Provenance of the data: ChEMBL document CHEMBL4706775
